tested on: CEM cells HIV-1 protection, formazan growth assay; test: NCI AIDS Antiviral Assay; details: measured here: growth of uninfected CEM cells

COMPOUND	IC50
O=[N+]([O-])c1ccc([As](=O)(O)O)c2ccccc12	> 200 µM
O=C1NC(=O)C(C(=O)C(=O)Nc2ccc(Br)cc2)C(=O)N1	> 191 µM
Cc1ccc(S(=O)(=O)c2ccccn2)cc1	380 µM
ONC1=Nc2ccccc2OCc2cc(Br)c(Br)cc2COc2ccccc2N=C1NO	10 µM
CCOC(=O)[C@H]1Nc2ccc(C)cc2C2c3ccccc3CC21 (stereo partly specified)	> 17 µM
Cn1c2c(c3ccccc31)CCN(CCCCN1CCN(c3ccccc3)CC1)C2=O	> 30.9 µM
COc1ccc(-c2nc(N)c(C#N)c3c2CCSc2ccc(C)cc2-3)cc1OC	11.7 µM
N#C/C(=C\c1ccc(Cl)cc1)c1nc(-c2cc3ccccc3oc2=O)cs1	> 151 µM
CC1=C(C(=O)O)N2C(=O)[C@@H](NC(=O)C(c3ccc(O)cc3)N3CSC(=S)N(C(C)C)C3)C2SC1 (stereo partly specified)	269 µM
NS(=O)(=O)OCCCCCCCOS(N)(=O)=O	13.5 µM
COc1ccc2ccc3[nH]c4c(C)cnc(NCCCN(C)C)c4c3c2c1	0.331 µM
